Target: DLG4_1, P78352
Sequence (P78352 62-152): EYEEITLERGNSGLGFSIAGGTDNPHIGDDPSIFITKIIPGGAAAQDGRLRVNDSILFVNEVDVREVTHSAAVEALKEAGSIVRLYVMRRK
Experiment: holdup assay
Set-up: key: below the threshold = too weak to quantify, mostly under pKd 3.1 to 4
Settings: plain residues with an end cap or a label only (N-terminal biotin on a linker: ado-ado)
Measurement name: pKd

[
  {
    "Binder": "TETASVCTKV [SLC23A1, Q9UHI7]",
    "Number": 3.9
  },
  {
    "Binder": "FVHPILQSAV [PRKCA, P17252]",
    "Number": 4.07
  }
]
